All figures here come from paper doi:10.1101/2022.12.01.518643.

System name: DRB5*01:01 (DR2a) (Homo sapiens, UniProt P01903+Q30154)
Protocol description: Fluorescence polarization competition binding assay, DR2a
Experimental parameters: FP competition; Alexa488 influenza hemagglutinin probe 25 nM; DR2a-CLIP 250 nM; HLA-DM 500 nM; 37 °C, 24 h

| Sequence | IC50 |
| --- | --- |
| LFYTQVYKNMAVYRS [Peptide P9, OC43 hemagglutinin esterase 128–142, naturally processed peptide eluted from HLA-DR] | < 1 µM |
| DFINGIFAKVKNTKVIK [Peptide P12, OC43 spike 98–114, naturally processed peptide eluted from HLA-DR] | < 1 µM |
